System: Salmonella
ASSAY_PROCEDURE: Minimum inhibitory concentration was measured against salmonella 1135
Format: functional
MEASUREMENT_TYPE: MIC (µg/mL)
Give bare numbers, in µg/mL.

COMPOUND	TEST_SYSTEM	MIC / µg/mL
N[C@@H](C(=O)N[C@@H]1C(=O)N2C(C(=O)O)=C(Cl)CS[C@H]12)c1ccccc1.O [CEFACLOR]	Salmonella	1

--- query ---
Would you mind telling me what MIC value was observed for N[C@@H](C(=O)N[C@@H]1C(=O)N2C(C(=O)O)=C(Cl)CC[C@H]12)c1ccccc1 [LORACARBEF ANHYDROUS] ?
0.5
